METHOD SUMMARY: qHTS assay for small molecule agonists of the p53 signaling pathway (AID 651631); further: nearly all actives have a fitted effect of over 15% in size
MEASUREMENT CONTEXT: HCT-116 p53RE-bla reporter, beta-lactamase FRET ratio, 16 h; series mostly up to 73.3 µM
Inconclusive results are not listed. The source made the active and inactive calls. The call rests on the fitted dose curve.
Output constraint: value belongs to 1 = active, -1 = inactive

Sample answers from the record:
MOLECULE	QUALITATIVE LABEL
OC[C@H]1O[C@H](O[C@]2(CCl)O[C@H](CCl)[C@@H](O)[C@@H]2O)[C@H](O)[C@@H](O)[C@H]1Cl	-1
CN(N=O)C(=O)N[C@@H]1[C@@H](O)[C@H](O)[C@@H](CO)O[C@@H]1O	-1
CN(C)C(=O)Nc1ccc(Cl)c(Cl)c1	-1
CC(=O)C(=O)O	-1
CCCc1cc(=O)[nH]c(=S)[nH]1	-1
CN(C)CCOC(C)(c1ccccc1)c1ccccn1 (centres undefined)	-1
CCc1nc(N)nc(N)c1-c1ccc(Cl)cc1	1
CCOC(N)=O	-1

Task item: Hi, do you know how "Cc1ncc([N+](=O)[O-])n1C" came out in this test?
Reply: -1

Task item: Please share the test call associated with "CS(=O)(=O)OCCCCOS(C)(=O)=O" .
Reply: -1

Task item: State the result this test recorded for "O=C(O)c1ccccc1" .
Reply: -1

Task item: Which result was noted for this molecule in the test: "Nc1ccc(S(N)(=O)=O)cc1"
Reply: -1

Task item: Hi, sorry to bother you, what did the test record for "CN(C)C(=S)SC(=S)N(C)C" ?
Reply: -1

Task item: Recorded test call requested for "CNNCc1ccc(C(=O)NC(C)C)cc1"
Reply: -1
